All figures here come from ChEMBL document CHEMBL2406976.

tested on: Burkholderia thailandensis; test: Antibacterial activity against Burkholderia thailandensis E264 assessed as bacterial growth inhibition at 1 mM after 24 hrs by two-fold dilution method relative to DMSO-treated control; assay type: functional; settings: E264, 24 h, read-out: GI
outcome measure: inhibition of growth at 1000 µM

Past entries and their recorded results:
Cc1ccc2cccc(O)c2n1 [8-HYDROXY QUINALDINE] : > 50%
Oc1c(CN2CCSCC2)cc(Cl)c2cccnc12 : > 50%
Oc1cccc2cccnc12 : > 50%
CC(C)c1ccc(CSc2nnc(N)[nH]2)cc1 : ≤ 26%
Nc1nnc(SCc2ccc(F)cc2)[nH]1 : ≤ 26%
Cc1ccc(CSc2nnc(N)[nH]2)cc1 : ≤ 26%

**Query** Return inhibition of growth at 1000 µM (reported value) for this compound: Oc1c(CN2CCOCC2)cc(Cl)c2cccnc12
**Result** > 50%
